target: T1, recombinant human CD40-Fc (human, UniProt P25942 21-193); experiment: ELISA, CD40-Fc coated, VHH at 0.013 nM
T1 construct: also called rh-CD40-Fc; CD40-hFc
T1 sequence (P25942 21-193): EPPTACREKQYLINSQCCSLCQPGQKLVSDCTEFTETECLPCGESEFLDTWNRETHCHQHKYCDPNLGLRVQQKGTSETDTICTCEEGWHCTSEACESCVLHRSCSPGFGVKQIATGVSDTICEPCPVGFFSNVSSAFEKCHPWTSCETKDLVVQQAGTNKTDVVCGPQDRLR
experimentalEndpoint: OD450

pgDD40-HZ-28 (VHH, not shown: small tags and cut ends) VHH: EVQLVESGGGLVQAGGSLRLSCVASERTFTPVRMGWFRQAPGKEREIVAAITWSDGSTYYADAVKGRFTISRDNALNAVYLQIDSLKPEDTAVYVCAASTSPYSTHLQFRYWGQGTQVTVSS : 0.075
pgDD40-SZ-12 (VHH, not shown: small tags and cut ends) VHH: EVQLVESGGGLVQPGGSLKLSCAASGFAFSRYTMSWVRQAPGKGLEWVSGIDSGGGRTSYINSVKGRFTISRDNAKNTLYLQMNSLKPEDTAVYHCAQGGDSGSYYRTSWGQGTQVTVSS : 0.058

A. pgDD40-SZ-1 (VHH, not shown: small tags and cut ends) VHH: QVQLVESGGALAQPGGSLRLSCEASTNVRSVNAMAWYRQGPGKPRELVANITSDDATYYADSVKGRFTLSREGARNTVYLQMNSLKPEDTAVYQCNVHYTSWGGIRRDYWGRGTQVTVSS
B. pgDD40-SZ-7 (VHH, not shown: small tags and cut ends) VHH: QVQLVESGGALAQPGGSLRLSCEASATVRSVNAMAWYRQGPGKPRELVANITSGDTTYYADSVKGRFTLSREGARNTVYLQMNSLKPEDTAVYQCNIHYTSTGGIRRDYWGRGTQVTVSS
Kindly compare A with B and tell me which has the lower OD450 figure. Your choice should be expressed through its label.
A
